Hey, just so you know, these numbers are from the supplement of paper PMC8728848.

# SYSTEM_UNDER_TEST: Fuc(a1-2)Gal(b1-3)GalNAc(b1-4)[Neu5Ac(a2-3)]Gal(b1-4)Glc
# ASSAY_SUMMARY: glycan array binding signal (z-score within array); higher = stronger binding
# CONDITIONS_USED: glycan notation: IUPAC condensed, linker removed
Many of the other results were omitted from the sample, so the strongest signals are more common in it than they were.
PROPERTY_MEASURED: glycan array binding signal (z-score)

binder="Pwp5 ND (Candida glabrata) (protein) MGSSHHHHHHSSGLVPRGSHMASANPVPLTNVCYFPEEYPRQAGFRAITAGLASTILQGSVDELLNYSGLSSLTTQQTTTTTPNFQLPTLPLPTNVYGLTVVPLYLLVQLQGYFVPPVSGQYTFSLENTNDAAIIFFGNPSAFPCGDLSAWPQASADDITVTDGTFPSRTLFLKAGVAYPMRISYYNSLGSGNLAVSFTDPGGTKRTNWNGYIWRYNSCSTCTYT" property_measured="glycan array binding signal (z-score)" value=-0.235
binder="Pwp6 (Candida glabrata) (protein) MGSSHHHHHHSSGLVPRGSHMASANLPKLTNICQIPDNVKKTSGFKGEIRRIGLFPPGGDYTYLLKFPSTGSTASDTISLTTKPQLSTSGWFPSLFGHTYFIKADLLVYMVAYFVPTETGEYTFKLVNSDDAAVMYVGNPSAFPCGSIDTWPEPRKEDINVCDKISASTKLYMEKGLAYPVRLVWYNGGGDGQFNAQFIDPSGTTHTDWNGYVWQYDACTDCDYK" property_measured="glycan array binding signal (z-score)" value=-0.318
binder="Fm1D (Escherichia coli) (protein) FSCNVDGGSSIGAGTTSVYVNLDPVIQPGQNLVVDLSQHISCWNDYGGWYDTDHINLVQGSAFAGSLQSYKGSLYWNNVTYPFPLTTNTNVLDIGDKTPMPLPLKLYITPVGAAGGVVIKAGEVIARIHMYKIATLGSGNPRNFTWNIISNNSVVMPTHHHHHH" property_measured="glycan array binding signal (z-score)" value=-0.146
